Target: EGFR(L858R/T790M) (Homo sapiens, UniProt P00533, L858R/T790M)
Sequence (P00533 25-1210 T790M/L858R): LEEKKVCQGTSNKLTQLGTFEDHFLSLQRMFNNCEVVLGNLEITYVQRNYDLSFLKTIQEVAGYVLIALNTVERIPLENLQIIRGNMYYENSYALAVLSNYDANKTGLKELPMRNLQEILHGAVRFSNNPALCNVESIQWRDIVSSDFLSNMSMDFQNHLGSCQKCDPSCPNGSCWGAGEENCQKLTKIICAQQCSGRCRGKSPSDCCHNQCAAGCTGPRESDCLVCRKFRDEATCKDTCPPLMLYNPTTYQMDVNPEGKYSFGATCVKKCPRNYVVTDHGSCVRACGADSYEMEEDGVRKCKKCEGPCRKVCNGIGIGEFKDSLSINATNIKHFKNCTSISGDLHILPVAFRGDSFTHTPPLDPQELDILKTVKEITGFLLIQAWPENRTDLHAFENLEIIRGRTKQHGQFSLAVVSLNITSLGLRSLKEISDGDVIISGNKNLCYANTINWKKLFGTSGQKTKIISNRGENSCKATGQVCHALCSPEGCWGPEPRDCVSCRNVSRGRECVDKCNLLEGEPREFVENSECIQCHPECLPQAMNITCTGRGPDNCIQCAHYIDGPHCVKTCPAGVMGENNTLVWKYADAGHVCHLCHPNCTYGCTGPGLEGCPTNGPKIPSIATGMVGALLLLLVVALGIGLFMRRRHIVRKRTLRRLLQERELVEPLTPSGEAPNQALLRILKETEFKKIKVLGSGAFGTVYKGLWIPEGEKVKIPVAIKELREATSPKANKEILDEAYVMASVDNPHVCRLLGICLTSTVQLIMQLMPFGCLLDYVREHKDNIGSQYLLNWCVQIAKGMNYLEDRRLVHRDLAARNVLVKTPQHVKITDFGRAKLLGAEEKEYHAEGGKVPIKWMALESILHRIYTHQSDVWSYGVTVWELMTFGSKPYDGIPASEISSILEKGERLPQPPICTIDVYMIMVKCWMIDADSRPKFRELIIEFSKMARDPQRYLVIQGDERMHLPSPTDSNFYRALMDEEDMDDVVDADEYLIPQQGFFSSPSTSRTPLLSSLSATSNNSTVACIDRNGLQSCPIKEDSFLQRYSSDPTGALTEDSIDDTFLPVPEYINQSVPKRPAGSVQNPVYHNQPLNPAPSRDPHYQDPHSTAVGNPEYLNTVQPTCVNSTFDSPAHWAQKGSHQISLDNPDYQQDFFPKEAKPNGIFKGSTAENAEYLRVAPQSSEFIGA
Test: EGFR target modulation in engineered NIH3T3 cell lines (phospho-EGFR AlphaLISA)
Type: cell-based
Parameters: host or cells: NIH3T3
Details: NIH3T3 cells expressing human EGFR L858R/T790M; 3 hours compound
recorded-metric: IC50 (µM)
One number for each entry, in µM.

Recorded IC50, per entry:
{"molecule": "C=CC(=O)Nc1cccc(-n2c(NC(=O)c3cccc(C(F)(F)F)c3)nc3cc(CN4CCOCC4)ccc32)c1 [Example 5-3]", "IC50 (µM)": 0.026}
{"molecule": "C=CC(=O)Nc1cccc(-n2c(NC(=O)c3cccc(F)c3)nc3cc(C)ccc32)c1 [Example 2-1]", "IC50 (µM)": 0.028}
{"molecule": "C=CC(=O)Nc1cccc(-n2c(NC(=O)c3ccc(F)c(F)c3)nc3cc(C)ccc32)c1 [Example 2-2]", "IC50 (µM)": 0.08}
{"molecule": "C=CC(=O)Nc1cccc(-n2c(NC(=O)c3cccc(C(F)(F)F)c3)nc3cc(CN4CCCC4)ccc32)c1 [Example 5-2]", "IC50 (µM)": 0.013}

Could you report IC50 for every entry in the following list?
1. C=CC(=O)Nc1cccc(-n2c(NC(=O)c3cccc(Oc4ccccc4)c3)nc3cc(C)ccc32)c1 [Example 2-6]
2. C=CC(=O)N[C@@H]1CCC[C@@H](n2c(NC(=O)c3cccc(C(F)(F)F)c3)nc3cc(C)ccc32)C1 (racemic) [Example 8-2]

Resp:
1: 0.062; 2: 0.41

Values were extracted from patent US20150152083A1.
